target-system: Glutathione-S-transferase tagged Bir3 domain of cIAP1 (L250-G350) (Homo sapiens)
Construct: The cIAP1 Bir3 domain construct (aa L250-G350) was prepared from a full length cIAP1 clone
Sequence (Q13490 250-350): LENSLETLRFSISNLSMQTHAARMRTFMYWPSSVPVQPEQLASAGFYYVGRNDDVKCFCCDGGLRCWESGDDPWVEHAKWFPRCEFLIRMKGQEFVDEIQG
test: Fluorescence polarization assay, cIAP1 Bir3 domain
settings: 20 nM cIAP1-Bir3, 2.5 nM AbuRPF-K-5FAM tracer, 20-minute incubation
pIC50: −log10 of the molar value.
reported-endpoint: pIC50

Solved cases below.
CN[C@@H](C)C(=O)N[C@H](C(=O)N1CCC[C@H]1C(=O)N[C@H]1c2ccccc2C[C@H]1OCC#CC#CCO[C@@H]1Cc2ccccc2[C@@H]1NC(=O)[C@@H]1CCCN1C(=O)[C@@H](NC(=O)[C@H](C)NC)C1CCCCC1)C1CCCCC1: 7.92
CN[C@@H](C)C(=O)N[C@H](C(=O)N1CCC[C@H]1C(=O)N[C@H]1c2ccccc2C[C@H]1OCCCCCCO[C@@H]1Cc2ccccc2[C@@H]1NC(=O)[C@@H]1CCCN1C(=O)[C@@H](NC(=O)[C@H](C)NC)C1CCCCC1)C1CCCCC1: 7.89

a: C#CCO[C@@H]1Cc2ccccc2[C@@H]1NC(=O)[C@@H]1CCCN1C(=O)[C@@H](NC(=O)[C@H](C)NC)C1CCCCC1
b: CN[C@@H](C)C(=O)N[C@H](C(=O)N1CCC[C@H]1C(=O)N[C@H]1c2ccccc2C[C@@H]1OCC#CC#CCO[C@H]1Cc2ccccc2[C@@H]1NC(=O)[C@@H]1CCCN1C(=O)[C@@H](NC(=O)[C@H](C)NC)C1CCCCC1)C1CCCCC1
**Q:** Of the pair a and b , name the member with the lesser recorded pIC50. Respond with the label that goes with your answer.
**A:** b
